- System: TK-10 renal
- test.details: NCI-60 one-dose screen, 48 h (100 = growth as untreated, 0 = no growth, -100 = all killed)
- conditions: 10 µM unless noted
About 83,000 compounds went through this panel and 20% of them were active in at least one assay; those are over-represented in the sample as a whole.
Please go through the items and note down their growth.
Give bare numbers, in %.

[[record]]
molecule = "COc1ccc(Oc2nc(Nc3ccc(N4CCOCC4)cc3)ncc2NC(=O)Nc2cc(OC)cc(OC)c2)cc1"
quantitative_readout = 28.4

[[record]]
molecule = "NNCCc1ccc(NC(=O)CCCc2ccc(C(=O)Nc3ccccc3N)cc2)cc1"
quantitative_readout = 32.5

[[record]]
molecule = "COc1ccc(C2=NN(C(C)=O)C(c3cn(-c4ccccc4)nc3-c3ccc(Cl)cc3)C2)cc1 (stereo not given)"
quantitative_readout = 12.1

[[record]]
molecule = "Cc1ccc(-c2nc(SCc3nc4cc(Cl)c(Cl)cc4[nH]3)[nH]c(=O)c2C#N)cc1"
quantitative_readout = 99.3


Could I get growth for every one of these entries?
1. COc1ccc(/C=C(/c2ccccc2)[N+](=O)[O-])c(OC)c1
2. COc1ccc2c(c1)c(-c1nc(-c3c[nH]c4ncccc34)cs1)cn2CCO
3. CN(C)CCCNC(=O)c1cncnc1Nc1ccc(OCc2cccc(F)c2)c(Cl)c1
4. CC(C)(C)n1cc(-c2ccnc(NCCNS(=O)(=O)c3ccc(O)cc3)c2)c(-c2cccc(O)c2)n1

A.
-26
58.3
-71.7
116

Could I get growth for every one of these entries?
1. Nc1nc(N)c(N=Nc2ccccc2)c(-c2ccccc2)n1
2. O=C(NNc1cnccn1)c1nc2cc(F)ccc2n2cccc12

A.
[55.1, 40.5]
